assay: Solubility assessment of salts in water; format: physicochemical; settings: thermodynamic from solid, p-toluenesulfonic acid salt, read-out: Aqueous Solubility
Observation type: solubility

Lookup result for NC(=O)C1=C(NCc2ccc(O)cc2)N=NC1Nc1ccc(-c2ccccn2)cc1 (stereo not shown) [Compound 6] ; measured solubility: < 200 µg/mL

----------
assay: Solubility assessment of salts in water; format: physicochemical; details: thermodynamic from solid, acetic acid salt, read-out: Aqueous Solubility
Observation type: solubility

Sample `NC(=O)c1c(Nc2ccc(N3CCOCC3)cc2)n[nH]c1NCc1ccc(O)cc1` ; solubility observed: < 500 µg/mL

----------
experiment: Solubility assessment of salts in water; assay type: physicochemical; conditions: thermodynamic from solid, Methane sulfonic acid salt, read-out: Aqueous Solubility
Observation type: solubility

Consider NC(=O)C1=C(NCc2ccc(O)cc2)N=NC1Nc1ccc(N2CCOCC2)nc1 (stereo not shown) . Its measured solubility is > 10 mg/mL

----------
Listed next: entries and their corresponding solubility.
assay: Solubility assessment of salts in water; format: physicochemical; conditions: thermodynamic from solid, camphorsulfonic acid salt, read-out: Aqueous Solubility

NC(=O)C1=C(NCc2ccc(O)cc2)N=NC1Nc1ccc(-c2ccccn2)cc1 (centres unmarked) : < 500 µg/mL

Turning now to a further molecule:
# solubility of `NC(=O)c1c(Nc2ccc(N3CCOCC3)cc2)n[nH]c1NCc1ccc(O)cc1` = < 200 µg/mL

----------
Listing of recorded solubility by entry.
experiment: Solubility assessment of salts in water; assay type: physicochemical; settings: thermodynamic from solid, Trifluoroacetic acid salt, read-out: Aqueous Solubility

Illustrative cases are given below, each with its answer.
NC(=O)c1c(Nc2ccc(N3CCOCC3)cc2)n[nH]c1NCc1ccc(O)cc1 [Compound 4] : < 200 µg/mL
NC(=O)C1=C(NCc2ccc(O)cc2)N=NC1Nc1ccc(N2CCOCC2)nc1 (stereo not drawn) [Compound 5] : > 1000 µg/mL

Next up:
Given item NC(=O)C1=C(NCc2ccc(O)cc2)N=NC1Nc1ccc(-c2ccccn2)cc1 (stereo not drawn) [Compound 6] , the value recorded as its solubility is < 500 µg/mL

----------
experiment: Solubility assessment of salts in water; assay type: physicochemical; conditions: thermodynamic from solid, formic acid salt, read-out: Aqueous Solubility
Observation type: solubility

Per the records, this compound ( `NC(=O)c1c(Nc2ccc(N3CCOCC3)cc2)n[nH]c1NCc1ccc(O)cc1` ) has solubility equal to < 500 µg/mL

----------
assay: Solubility assessment of salts in water; type: physicochemical; conditions: thermodynamic from solid, tartaric acid salt, read-out: Aqueous Solubility
Observation type: solubility

Summary for this molecule, NC(=O)C1=C(NCc2ccc(O)cc2)N=NC1Nc1ccc(-c2ccccn2)cc1 (stereo not shown) [Compound 6] : solubility is < 200 µg/mL

----------
test: Solubility assessment of salts in water; type: physicochemical; conditions: thermodynamic from solid, HBr salt, read-out: Aqueous Solubility
Observation type: solubility

// field: solubility; key: NC(=O)c1c(Nc2ccc(N3CCOCC3)cc2)n[nH]c1NCc1ccc(O)cc1 [Compound 4] ; value = > 10000 µg/mL

----------
Listed next: entries and their corresponding solubility.
experiment: Solubility assessment of salts in water; assay type: physicochemical; conditions: thermodynamic from solid, Sulfuric acid salt, read-out: Aqueous Solubility

The compound listed as NC(=O)C1=C(NCc2ccc(O)cc2)N=NC1Nc1ccc(N2CCOCC2)nc1 (stereo not drawn) [Compound 5] shows solubility equal to > 10 µg/mL

In plain terms, NC(=O)c1c(Nc2ccc(N3CCOCC3)cc2)n[nH]c1NCc1ccc(O)cc1 [Compound 4] has a documented solubility of > 2000 µg/mL

// recorded solubility for NC(=O)C1=C(NCc2ccc(O)cc2)N=NC1Nc1ccc(-c2ccccn2)cc1 (stereo not drawn) [Compound 6] : < 500 µg/mL

----------
Test: Solubility assessment of salts in water
Format: physicochemical
Details: thermodynamic from solid, HCl salt, read-out: Aqueous Solubility
Method: Solubility assessment: A preweighed amount of powder of a salt was treated with water to target a nominal concentration of 10 mg/mL. If a clear solution was obtained, then the solubility was noted as ≧10 mg/mL. If a suspension was obtained, additional water was added to target a nominal concentration of 5 mg/mL. If still a suspension after the addition of water, additional water was added to target a lower nominal concentration. […]
Observation type: solubility

Solved cases below.
CC(C)N1CCN(c2ccc(Nc3n[nH]c(NCc4ccc(O)cc4)c3C(N)=O)cc2)CC1 : > 0.5 mg/mL
NC(=O)C1=C(NCc2ccc(O)cc2)N=NC1Nc1ccc(CN2CCOCC2)cc1 (centres unmarked) : > 0.5 mg/mL
NC(=O)C1=C(NCc2ccc(O)cc2)N=NC1Nc1cccc(Cl)c1 (centres unmarked) : > 0.063 mg/mL
NC(=O)C1=C(NCc2ccc(O)cc2)N=NC1Nc1ccc(N2CCOCC2)nc1 (centres unmarked) : > 2 mg/mL

Moving on to the next compound.
Record summary for NC(=O)C1=C(NCc2ccc(O)cc2)N=NC1Nc1ccc(-n2ccnc2)cc1 (centres unmarked) : reported solubility = > 0.5 mg/mL

----------
assay: Solubility assessment of salts in water; format: physicochemical; conditions: thermodynamic from solid, Phosphoric acid salt, read-out: Aqueous Solubility
solubility reference

Please review the entries below; each comes with its answer.
NC(=O)c1c(Nc2ccc(N3CCOCC3)cc2)n[nH]c1NCc1ccc(O)cc1 : < 200 µg/mL
NC(=O)C1=C(NCc2ccc(O)cc2)N=NC1Nc1ccc(-c2ccccn2)cc1 (centres unmarked) : > 20000 µg/mL
CC(C)N1CCN(c2ccc(Nc3n[nH]c(NCc4ccc(O)cc4)c3C(N)=O)cc2)CC1 : > 1000 µg/mL
NC(=O)C1=C(NCc2ccc(O)cc2)N=NC1Nc1ccc(N2CCOCC2)nc1 (centres unmarked) : > 100 µg/mL

Lab note: measured solubility of NC(=O)C1=C(NCc2ccc(O)cc2)N=NC1Nc1ccc(-n2ccnc2)cc1 (centres unmarked) was > 1000 µg/mL

----------
assay: Solubility assessment of salts in water; assay type: physicochemical; conditions: thermodynamic from solid, Free base, read-out: Aqueous Solubility
Observation type: solubility

These recorded examples may help you get a feel for the data.
NC(=O)C1=C(NCc2ccc(O)cc2)N=NC1Nc1cccc(Cl)c1 (stereo not drawn) [Compound 1] : < 40 µg/mL
NC(=O)C1=C(NCc2ccc(O)cc2)N=NC1Nc1ccc(-c2ccccn2)cc1 (stereo not drawn) [Compound 6] : < 100 µg/mL
NC(=O)C1=C(NCc2ccc(O)cc2)N=NC1Nc1ccc(CN2CCOCC2)cc1 (stereo not drawn) [Compound 3] : < 40 µg/mL
CC(C)N1CCN(c2ccc(Nc3n[nH]c(NCc4ccc(O)cc4)c3C(N)=O)cc2)CC1 [Compound 7] : < 40 µg/mL

Below: the item to evaluate.
Entry NC(=O)C1=C(NCc2ccc(O)cc2)N=NC1Nc1ccc(-n2ccnc2)cc1 (stereo not drawn) [Compound 8] , solubility reported as < 40 µg/mL

----------
assay: Solubility assessment of salts in water; assay type: physicochemical; settings: thermodynamic from solid, HCl salt, read-out: Aqueous Solubility
Each item that follows carries a reported solubility.

Recorded solubility, per entry:
CN1CCN(c2ccc(NC3N=NC(NCc4ccc(O)cc4)=C3C(N)=O)cc2)CC1 (stereo not drawn) : > 1000 µg/mL
NC(=O)c1c(Nc2ccc(N3CCOCC3)cc2)n[nH]c1NCc1ccc(O)cc1 : > 10000 µg/mL

# solubility of `NC(=O)c1c(Nc2ccc3[nH]ncc3c2)n[nH]c1NCc1ccc(O)cc1` = < 100 µg/mL

----------
experiment: Solubility assessment of salts in water; assay type: physicochemical; settings: thermodynamic from solid, Free base, read-out: Aqueous Solubility
Measured solubility, listed per entry for reference.

NC(=O)c1c(Nc2ccc(N3CCOCC3)cc2)n[nH]c1NCc1ccc(O)cc1 [Compound 4] : < 100 µg/mL
CN1CCN(c2ccc(NC3N=NC(NCc4ccc(O)cc4)=C3C(N)=O)cc2)CC1 (stereo not shown) [Compound 2] : < 40 µg/mL

Sample NC(=O)c1c(Nc2ccc3[nH]ncc3c2)n[nH]c1NCc1ccc(O)cc1 [Compound 9] ; solubility observed: < 40 µg/mL

Recorded result, NC(=O)C1=C(NCc2ccc(O)cc2)N=NC1Nc1ccc(N2CCOCC2)nc1 (stereo not shown) [Compound 5] , solubility: < 100 µg/mL

The measured values listed here are drawn from patent US9540351B2.
